Target: PPIA (Homo sapiens)
Construct: His-tag (cleaved yes); made in house; host or cells: Escherichia coli BL21(DE3)
Sequence (P62937 whole entry): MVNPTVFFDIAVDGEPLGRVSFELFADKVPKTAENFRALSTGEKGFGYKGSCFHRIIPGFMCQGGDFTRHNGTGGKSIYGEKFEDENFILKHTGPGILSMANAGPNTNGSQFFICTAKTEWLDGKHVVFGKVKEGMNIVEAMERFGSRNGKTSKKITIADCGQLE
Assay: NMR titration of 15N-labeled PPIA with dipeptide repeat polymers (1H-15N HSQC)
Assay type: binding
assay-readout: pKd
One number for each entry, as −log10 of the molar value.

| substance | pKd |
| --- | --- |
| Ac-PRPRPRPRPR-NH2 [PR5] | 4.31 |

Let's switch to this substance now.
Q: So what does the record say about pKd for Ac-PRPRPRPRPRPRPRPRPRPR-NH2 [PR10] ?
Ans: 4.57
